measured.on: Epidermal growth factor receptor (Homo sapiens, UniProt P00533)
Sequence (P00533 whole entry, the tested form may be a part): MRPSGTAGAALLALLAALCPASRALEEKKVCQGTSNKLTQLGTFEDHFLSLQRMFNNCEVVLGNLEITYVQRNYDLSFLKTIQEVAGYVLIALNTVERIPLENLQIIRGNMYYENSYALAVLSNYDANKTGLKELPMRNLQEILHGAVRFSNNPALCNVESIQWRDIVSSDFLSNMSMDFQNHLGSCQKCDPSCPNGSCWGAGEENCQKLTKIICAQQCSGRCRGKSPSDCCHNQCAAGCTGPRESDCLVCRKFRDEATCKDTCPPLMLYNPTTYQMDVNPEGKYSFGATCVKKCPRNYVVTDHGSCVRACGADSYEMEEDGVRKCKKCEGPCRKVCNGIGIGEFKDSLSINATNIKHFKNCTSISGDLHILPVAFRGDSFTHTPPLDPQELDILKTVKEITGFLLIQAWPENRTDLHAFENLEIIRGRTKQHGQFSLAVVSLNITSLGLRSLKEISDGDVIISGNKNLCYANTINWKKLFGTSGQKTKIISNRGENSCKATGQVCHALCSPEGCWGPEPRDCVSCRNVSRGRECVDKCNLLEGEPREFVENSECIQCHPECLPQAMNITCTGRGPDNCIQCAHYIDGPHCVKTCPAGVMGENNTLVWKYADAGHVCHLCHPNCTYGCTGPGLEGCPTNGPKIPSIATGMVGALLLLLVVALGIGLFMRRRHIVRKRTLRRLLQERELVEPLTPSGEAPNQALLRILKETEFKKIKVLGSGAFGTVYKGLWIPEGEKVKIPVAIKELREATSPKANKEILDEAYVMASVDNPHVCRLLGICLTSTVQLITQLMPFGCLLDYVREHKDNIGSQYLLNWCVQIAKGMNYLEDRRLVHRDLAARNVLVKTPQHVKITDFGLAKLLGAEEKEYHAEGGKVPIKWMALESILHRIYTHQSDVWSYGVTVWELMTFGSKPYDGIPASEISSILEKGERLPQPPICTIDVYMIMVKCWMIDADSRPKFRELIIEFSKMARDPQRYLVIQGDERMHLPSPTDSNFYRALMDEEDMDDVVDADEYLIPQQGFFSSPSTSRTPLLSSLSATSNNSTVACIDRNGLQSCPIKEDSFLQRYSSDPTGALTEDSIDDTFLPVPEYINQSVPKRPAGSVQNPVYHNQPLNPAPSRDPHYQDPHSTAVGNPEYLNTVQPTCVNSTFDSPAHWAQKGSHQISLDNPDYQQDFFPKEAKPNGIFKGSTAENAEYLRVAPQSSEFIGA
protocol: Concentration required to inhibit the phosphorylation of a 14-residue fragment of phospholipase C gamma 1 by Epidermal growth factor receptor from A431 cell vesicles
observed.property: pIC50
Schema: pIC50 number; meaning minus log10 of the concentration expressed in molar units.

Here is how some molecules turned out for pIC50.
entry_smiles=COc1ccc2c(Nc3ccccc3)ncnc2c1 test_value=6.92
entry_smiles=O=[N+]([O-])c1ccc2ncnc(Nc3ccccc3)c2c1 test_value=5.30

Please respond with reported pIC50 (system Epidermal growth factor receptor (Homo sapiens, UniProt P00533)) for CNc1ccc2ncnc(Nc3cccc(Br)c3)c2c1 .
8.40

Please respond with reported pIC50 (system Epidermal growth factor receptor (Homo sapiens, UniProt P00533)) for Nc1cc2ncnc(Nc3cccc(Br)c3)c2cc1[N+](=O)[O-] .
7.28

Please respond with reported pIC50 (system Epidermal growth factor receptor (Homo sapiens, UniProt P00533)) for COc1cc2ncnc(Nc3cccc(C(F)(F)F)c3)c2cc1OC .
9.62

----------
measured.on: Epidermal growth factor receptor (Homo sapiens, UniProt P00533)
Please use Satisfied for IC50 under 60 nM and Not satisfied for everything else, ties included.

# strict comparison: is reported IC50 < 60 nM? input = O=[N+]([O-])c1ccc2ncnc(Nc3cccc(C(F)(F)F)c3)c2c1
Not satisfied

----------
IC50 for assorted compounds
measured.on: Epidermal growth factor receptor (Homo sapiens, UniProt P00533)
Numbers only; they are read as nM.

Here is how some compounds turned out for IC50.
entry_smiles=O=[N+]([O-])c1ccc2c(Nc3ccccc3)ncnc2c1 measured_on="Epidermal growth factor receptor (Homo sapiens, UniProt P00533)" test_value=12000
entry_smiles=CNc1cc2ncnc(Nc3cccc(Br)c3)c2cc1[N+](=O)[O-] measured_on="Epidermal growth factor receptor (Homo sapiens, UniProt P00533)" test_value=68
entry_smiles=CNc1cc2ncnc(Nc3cccc(Br)c3)c2cc1N measured_on="Epidermal growth factor receptor (Homo sapiens, UniProt P00533)" test_value=0.69
entry_smiles=CN(C)c1cc2ncnc(Nc3cccc(Br)c3)c2cc1[N+](=O)[O-] measured_on="Epidermal growth factor receptor (Homo sapiens, UniProt P00533)" test_value=2000
entry_smiles=COc1cc2nc(N)nc(Nc3cccc(Br)c3)c2cc1OC measured_on="Epidermal growth factor receptor (Homo sapiens, UniProt P00533)" test_value=463
entry_smiles=COc1cc2ncnc(Nc3ccc(Br)c(Br)c3)c2cc1OC measured_on="Epidermal growth factor receptor (Homo sapiens, UniProt P00533)" test_value=0.072
entry_smiles=COc1ccc2ncnc(Nc3ccccc3)c2c1 measured_on="Epidermal growth factor receptor (Homo sapiens, UniProt P00533)" test_value=55
entry_smiles=CCOc1cc2ncnc(Nc3cccc(Br)c3)c2cc1OCC measured_on="Epidermal growth factor receptor (Homo sapiens, UniProt P00533)" test_value=0.006
entry_smiles=Nc1ccc2c(Nc3cccc(I)c3)ncnc2c1 measured_on="Epidermal growth factor receptor (Homo sapiens, UniProt P00533)" test_value=0.35
entry_smiles=COc1cc2ncnc(Nc3cc(Br)cc(Br)c3)c2cc1OC measured_on="Epidermal growth factor receptor (Homo sapiens, UniProt P00533)" test_value=113

Could you now look at the following compound, please?
Indicate the recorded IC50 value for this compound: CC(=O)Nc1ccc2c(Nc3cccc(Br)c3)ncnc2c1
40
